System: HCT-15 colon
Test: NCI tumour cell line growth inhibition, 48 h; in the data active means GI50 below about 0.43 µM; inactive means the rest
Outcomes: true (active), false (inactive)

> print(dat)
                                    compound  target.of.assay  assigned.class
 1  COc1cccc(Nc2nccc(Nc3ccc4[nH]ncc4c3)n2)c1     HCT-15 colon           false
 2  Cc1cc2c(C(C)C)c(O)c(O)c(C=O)c2c(O)c1-c1c(C)cc2c(C(C)C)c(O)c(O)c(C=O)c2c1O (tested in a mixture with another compound)     HCT-15 colon           false
 3                    N#CSCC(=O)c1ccc(Cl)cc1     HCT-15 colon           false
 4  C=C1CO[C@@H]2C[C@@H]1CC/C(C)=C/CC/C(C)=C/CC[C@@]2(C)O     HCT-15 colon           false
 5          CCOC(=O)C(Cc1ccc(OC)cc1)C(=O)OCC     HCT-15 colon           false
 6                            Brc1ccc(Br)nn1     HCT-15 colon           false
 7  CN(NC(=O)CC(=O)NN(C)C(=S)c1ccc(Cl)cc1)C(=S)c1ccc(Cl)cc1     HCT-15 colon           false
 8  C[C@@H](Oc1cc(-c2cnn(C3CC4(CCCNC4)C3)c2)cnc1N)c1c(Cl)ccc(F)c1Cl (some centres undefined)     HCT-15 colon           false
 9  CCCCCc1c(C)[nH]c(/C=c2\[nH]/c(=C3/C=c4ccccc4=N3)cc2OC)c1C     HCT-15 colon            true
10       CC(=O)/C=C/C1=C(c2ccsc2)c2ccccc2CC1     HCT-15 colon           false
11  COc1cc(/C=C/C(=O)c2ccc(Nc3nc(Nc4ccccc4)nc(Nc4ccc(Cl)cc4)n3)cc2)cc(OC)c1OC     HCT-15 colon           false
12  N#CC(C#N)=Cc1ccc(-c2ccc(-c3nc4ccccc4o3)cc2)o1     HCT-15 colon           false
13  C[N+](C)(Cc1ccc(NC(=O)CCCC(=O)ON2C(=O)CCC2=O)cc1)c1ccccc1     HCT-15 colon           false
14  COc1ccc(-n2sc(=O)n(Cc3ccc(COC(=O)C(C)c4ccc(CC(C)C)cc4)cc3)c2=O)cc1 (centres undefined)     HCT-15 colon           false
15     CC(C)CNc1nc(N=[N+]=[N-])nc(NCC(C)C)n1     HCT-15 colon           false
16  O=C(Nc1ccc(S(=O)(=O)NC2CCCCCC2)cc1)C(c1ccccc1)S(=O)(=O)c1ccc(F)cc1 (centres undefined)     HCT-15 colon            true
17  O=[N+]([O-])c1ccc(-c2ccccc2)c([As](=O)(O)O)c1     HCT-15 colon           false
18  C=C(C)[C@@H]1CC[C@]2(C)[C@H](C=CC3=C4C[C@@](C)(CO)CC[C@]4(C)CC[C@]32C)[C@@]1(C)CCCN     HCT-15 colon           false
19      Cc1cc2nc3c4ccccc4n(CCN(C)C)c3nc2cc1C     HCT-15 colon           false
